- experiment_description: chemical recovery by SPE of plasma after PDMS sampling; higher = better extraction;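 note: over 400 spiked chemicals quantified by LC-HRMS or GC-HRMS via internal standard calibration, recovery relative to spike mix added to unspiked plasma extract to correct matrix effects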
- stated_conditions: pooled human plasma; extraction method: HLB SPE of plasma after PES; equilibration time (d): 6
chemical recovery by SPE of plasma of 20% or higher: YES. Under 20%: NO.

molecule: CN(C)NC(=O)CCC(=O)O [Daminozide]
assigned_category: NO

molecule: C[C@]12CC[C@H]3[C@@H](CCC4=CC(=O)CC[C@@]43C)[C@@H]1CC[C@@H]2O [Testosterone]
assigned_category: NO

molecule: CC(C(=O)O)c1cccc(C(=O)c2ccccc2)c1 (stereo not drawn) [Ketoprofen]
assigned_category: YES

Hello, I need to know if CC[C@H]1OC(=O)[C@H](C)[C@@H](O[C@H]2C[C@@](C)(OC)[C@@H](O)[C@H](C)O2)[C@H](C)[C@@H](O[C@@H]2O[C@H](C)C[C@H](N(C)C)[C@H]2O)[C@](C)(O)C[C@@H](C)/C(=N\OCOCCOC)[C@H](C)[C@@H](O)[C@]1(C)O [Roxithromycin] has measured chemical recovery by SPE of plasma not below 20%. Thanks!
YES

Kindly determine if chemical recovery by SPE of plasma recorded for CC12CC3CC(C)(C1)CC(N)(C3)C2 [Memantine] is above or exactly 20%.
NO

State whether the measured chemical recovery by SPE of plasma reaches 20%, counting equality as reaching it, for N#Cc1cc(Br)c(O)c(Br)c1 [Bromoxynil]
YES

Confirm if chemical recovery by SPE of plasma reported for the molecule CCOP(=O)(OCC)OCC [Triethylphosphate] is 20% or above.
NO

Decide: chemical recovery by SPE of plasma of CCNS(=O)(=O)c1ccccc1C [N-Ethyl-o-toluenesulfonamide] >= 20%?
NO

----------
chemical recovery by SPE of plasma values for the compounds below.
- experiment_description: chemical recovery by SPE of plasma after PDMS sampling; higher = better extraction
- stated_conditions: pooled human plasma; extraction method: HLB SPE of plasma after PES; equilibration time (d): 1
Form entry: value (%) — number only.

Example compounds with recorded chemical recovery by SPE of plasma:
compound: CCNc1nc(NCC)nc(SC)n1 [Simetryn]
recorded_result: 12.9
//
compound: CN1CCCC(n2nc(Cc3ccc(Cl)cc3)c3ccccc3c2=O)CC1 (centres undefined) [Azelastine]
recorded_result: 1.03
//
compound: CCCCCOC(=O)Nc1nc(=O)n([C@@H]2O[C@H](C)[C@@H](O)[C@H]2O)cc1F [Capecitabine]
recorded_result: 44.1

# query: chemical recovery by SPE of plasma of entry CC(C(=O)O)c1cccc(C(=O)c2ccccc2)c1 (centres undefined) [Ketoprofen]
47.5

----------
- experiment_description: chemical recovery by SPE of plasma after PDMS sampling; higher = better extraction
- stated_conditions: pooled human plasma; extraction method: HLB SPE of plasma after PES; equilibration time (d): 3
Items are presented alongside their recorded chemical recovery by SPE of plasma.
Quick note: unit goes after the number.

Known chemical recovery by SPE of plasma results, listed for orientation:
molecule: CCNS(=O)(=O)c1ccccc1C [N-Ethyl-o-toluenesulfonamide]
chemical recovery by SPE of plasma: 25.7%
--
molecule: CC(=O)Nc1ccc(S(=O)(=O)Nc2cc(C)on2)cc1 [Acetyl-sulfamethoxazole]
chemical recovery by SPE of plasma: 51.4%
--
molecule: Cc1cccc(C)c1NC(=O)CS(=O)(=O)O [Dimethachlor CGA369-873]
chemical recovery by SPE of plasma: 23.6%
--
molecule: c1ccc(-c2ccc(C(c3ccccc3)n3ccnc3)cc2)cc1 (stereo not given) [Bifonazol]
chemical recovery by SPE of plasma: 0.479%

Okay, now this molecule:
Would you kindly share the measured chemical recovery by SPE of plasma for CCCN(CC)CC1COC2(CCC(C(C)(C)C)CC2)O1 (stereo not given) [Spiroxamine] ?
0.0829%
